STUDY_TARGET: human TLR7 (Homo sapiens)
Construct: host or cells: HEK293
Sequence (Q9NYK1 27-1049): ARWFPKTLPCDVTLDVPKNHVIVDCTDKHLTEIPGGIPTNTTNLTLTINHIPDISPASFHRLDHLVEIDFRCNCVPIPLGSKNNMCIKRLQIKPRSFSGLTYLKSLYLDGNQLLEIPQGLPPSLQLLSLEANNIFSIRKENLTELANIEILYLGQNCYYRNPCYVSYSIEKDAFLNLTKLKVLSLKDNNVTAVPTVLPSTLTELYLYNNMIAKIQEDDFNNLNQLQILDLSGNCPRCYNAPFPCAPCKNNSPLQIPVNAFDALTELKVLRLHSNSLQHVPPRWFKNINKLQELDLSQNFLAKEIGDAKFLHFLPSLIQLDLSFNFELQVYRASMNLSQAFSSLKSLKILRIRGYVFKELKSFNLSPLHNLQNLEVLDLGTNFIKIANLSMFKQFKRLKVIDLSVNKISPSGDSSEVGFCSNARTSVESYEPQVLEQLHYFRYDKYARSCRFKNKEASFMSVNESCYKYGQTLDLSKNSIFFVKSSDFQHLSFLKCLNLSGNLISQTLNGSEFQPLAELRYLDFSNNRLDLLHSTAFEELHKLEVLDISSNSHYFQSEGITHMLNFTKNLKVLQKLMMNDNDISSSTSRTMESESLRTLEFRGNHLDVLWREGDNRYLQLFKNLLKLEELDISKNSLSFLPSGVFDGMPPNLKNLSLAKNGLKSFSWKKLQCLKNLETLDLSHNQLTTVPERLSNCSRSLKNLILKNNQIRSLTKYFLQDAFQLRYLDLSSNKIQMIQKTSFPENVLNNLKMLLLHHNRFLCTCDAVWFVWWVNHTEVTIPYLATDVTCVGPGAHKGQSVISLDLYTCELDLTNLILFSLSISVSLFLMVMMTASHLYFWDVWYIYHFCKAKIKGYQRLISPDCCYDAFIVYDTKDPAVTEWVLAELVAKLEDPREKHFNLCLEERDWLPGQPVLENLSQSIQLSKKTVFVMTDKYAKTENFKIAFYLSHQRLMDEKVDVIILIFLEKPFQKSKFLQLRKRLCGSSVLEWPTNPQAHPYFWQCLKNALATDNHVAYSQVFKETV
ASSAY_INFO: HEK293 SEAP reporter assay, human TLR7 (Biological Example 1)
Assay type: cell-based
MEASUREMENT_CONTEXT: HEK293-humanTLR7 reporter cells, 4 hrs; read-out: hTLR7 EC50
METRIC_NAME: EC50 (nM)
Give bare numbers, in nM.

// recorded EC50 for CCCCn1nc2c(N)nc3ccccc3c2c1Cc1ccc(CN)cc1 : 46.7
